This section presents molecules with their documented pIC50 values.
# Target or test system: Cholinesterase (Homo sapiens)
# Sequence (P06276 whole entry): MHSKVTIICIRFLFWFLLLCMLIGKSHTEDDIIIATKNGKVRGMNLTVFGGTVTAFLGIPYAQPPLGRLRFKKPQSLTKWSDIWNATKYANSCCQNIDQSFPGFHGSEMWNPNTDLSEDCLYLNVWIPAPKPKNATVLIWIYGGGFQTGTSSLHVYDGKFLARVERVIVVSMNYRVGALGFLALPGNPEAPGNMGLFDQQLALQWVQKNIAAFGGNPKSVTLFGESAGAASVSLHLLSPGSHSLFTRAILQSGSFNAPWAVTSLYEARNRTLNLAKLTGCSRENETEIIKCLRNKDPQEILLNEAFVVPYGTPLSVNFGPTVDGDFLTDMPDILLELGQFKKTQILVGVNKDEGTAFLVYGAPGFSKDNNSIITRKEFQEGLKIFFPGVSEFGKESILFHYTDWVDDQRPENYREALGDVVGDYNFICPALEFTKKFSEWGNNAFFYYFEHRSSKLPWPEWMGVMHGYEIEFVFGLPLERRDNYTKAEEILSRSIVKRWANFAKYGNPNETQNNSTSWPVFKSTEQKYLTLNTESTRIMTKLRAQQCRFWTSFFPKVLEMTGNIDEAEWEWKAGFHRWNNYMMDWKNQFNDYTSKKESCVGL
# Assay details: Inhibition of human serum BChE using butyrylthiocholine iodide as substrate pre-incubated for 20 mins before substrate addition and measured for 180 secs by spectrophotometry based Ellman's method
pIC50: −log10 of the molar value.

{"columns": ["Smiles input", "pIC50"],
 "data": [
  ["Cl.Clc1ccc(-n2cc(COc3ccc(/C=N/Nc4c5c(nc6ccccc46)CCCC5)cc3)nn2)cc1", 7.17],
  ["S=C(NNc1c2c(nc3ccccc13)CCCC2)Nc1ccc(Br)cc1", 6.37],
  ["O=[N+]([O-])c1cccc(-n2cc(COc3ccc(/C=N/Nc4c5c(nc6ccccc46)CCCC5)cc3)nn2)c1", 7.32],
  ["C(=N\\Nc1c2c(nc3ccccc13)CCCC2)/c1ccc(OCc2cn(-c3ccccc3)nn2)cc1", 7.27],
  ["NS(=O)(=O)c1ccc(-n2cc(COc3ccc(/C=N/Nc4c5c(nc6ccccc46)CCCC5)cc3)nn2)cc1", 7.41],
  ["C#CCOc1ccc(/C=N/Nc2c3c(nc4ccccc24)CCCC3)cc1", 6.96],
  ["Cl.O=C(O)c1ccc(-n2cc(COc3ccc(/C=N/Nc4c5c(nc6ccccc46)CCCC5)cc3)nn2)cc1", 6.52],
  ["NS(=O)(=O)c1ccc(NC(=S)NNc2c3c(nc4ccccc24)CCCC3)cc1", 6.51],
  ["COc1ccc(-n2cc(COc3ccc(/C=N/Nc4c5c(nc6ccccc46)CCCC5)cc3)nn2)cc1.Cl", 7.17],
  ["COc1ccc(NC(=S)NNc2c3c(nc4ccccc24)CCCC3)cc1", 6.25],
  ["S=C(NNc1c2c(nc3ccccc13)CCCC2)Nc1ccc(Cl)cc1", 6.48],
  ["O=[N+]([O-])c1ccc(-n2cc(COc3ccc(/C=N/Nc4c5c(nc6ccccc46)CCCC5)cc3)nn2)cc1", 7.59],
  ["C(=N\\Nc1c2c(nc3ccccc13)CCCC2)/c1ccc(OCc2cn(Cc3ccccc3)nn2)cc1", 7.44],
  ["C=CCNC(=S)NNc1c2c(nc3ccccc13)CCCC2", 6.14],
  ["Brc1ccc(-n2cc(COc3ccc(/C=N/Nc4c5c(nc6ccccc46)CCCC5)cc3)nn2)cc1.Cl", 7.03],
  ["S=C(NNc1c2c(nc3ccccc13)CCCC2)Nc1ccccc1", 6.13],
  ["Cc1ccc(-n2cc(COc3ccc(/C=N/Nc4c5c(nc6ccccc46)CCCC5)cc3)nn2)cc1.Cl", 7.12]
]}

* * *

# Assay details: in vitro
# Run conditions: human, HepG2 cells
# Description: Cytotoxicity against human HepG2 cell assessed as safe dose that maintains 100% cell viability incubated for 72 hrs by MTT assay
This section presents compounds with their documented log10 of MNTC at 72 h values.
Measurement kind: log10 of MNTC at 72 h (log10 of the value in µM)

{"columns": ["Smiles input", "Measurement kind", "Assay result"],
 "data": [
  ["S=C(NNc1c2c(nc3ccccc13)CCCC2)Nc1ccc(Br)cc1", "log10 of MNTC at 72 h", 0.47],
  ["C(=N\\Nc1c2c(nc3ccccc13)CCCC2)/c1ccc(OCc2cn(Cc3ccccc3)nn2)cc1", "log10 of MNTC at 72 h", 0.08],
  ["S=C(NNc1c2c(nc3ccccc13)CCCC2)Nc1ccc(Cl)cc1", "log10 of MNTC at 72 h", 0.29],
  ["Cl.Clc1ccc(-n2cc(COc3ccc(/C=N/Nc4c5c(nc6ccccc46)CCCC5)cc3)nn2)cc1", "log10 of MNTC at 72 h", 1.85],
  ["NS(=O)(=O)c1ccc(-n2cc(COc3ccc(/C=N/Nc4c5c(nc6ccccc46)CCCC5)cc3)nn2)cc1", "log10 of MNTC at 72 h", 0.02],
  ["Cl.O=C(O)c1ccc(-n2cc(COc3ccc(/C=N/Nc4c5c(nc6ccccc46)CCCC5)cc3)nn2)cc1", "log10 of MNTC at 72 h", 1.63],
  ["Cc1ccc(-n2cc(COc3ccc(/C=N/Nc4c5c(nc6ccccc46)CCCC5)cc3)nn2)cc1.Cl", "log10 of MNTC at 72 h", 2.05],
  ["COc1ccc(-n2cc(COc3ccc(/C=N/Nc4c5c(nc6ccccc46)CCCC5)cc3)nn2)cc1.Cl", "log10 of MNTC at 72 h", 1.43],
  ["S=C(NNc1c2c(nc3ccccc13)CCCC2)Nc1ccccc1", "log10 of MNTC at 72 h", 0.83]
]}
